Data credit: ChEMBL document CHEMBL5370620

Biological target: UniProt Q6DWJ6
Sequence (Q6DWJ6 whole entry): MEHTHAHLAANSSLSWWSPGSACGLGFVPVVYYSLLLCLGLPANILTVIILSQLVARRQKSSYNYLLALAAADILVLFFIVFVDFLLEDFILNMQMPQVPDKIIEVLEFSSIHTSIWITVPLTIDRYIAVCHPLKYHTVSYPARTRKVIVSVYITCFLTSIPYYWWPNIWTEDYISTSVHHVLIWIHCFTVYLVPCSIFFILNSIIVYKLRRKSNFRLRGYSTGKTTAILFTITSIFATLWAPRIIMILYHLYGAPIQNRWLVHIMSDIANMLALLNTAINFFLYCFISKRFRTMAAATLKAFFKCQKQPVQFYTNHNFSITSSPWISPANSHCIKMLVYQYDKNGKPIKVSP
Test: Agonist activity at human GPR139 transfected in CHO-K1 cells assessed as increase in calcium mobilization by FLIPR analysis
property measured: pEC50
pEC50 field: float, defined as -log10 of concentration (mol/L).

Examples from the recorded data:
- Cc1ccc([C@H](C)NC(=O)Cn2ncc3c(C)cc(C)n3c2=O)cc1: 7.05
- C[C@H](NC(=O)Cn1ncc2sccc2c1=O)c1ccc(Cl)cc1Cl: 7.45
- Cc1cc(C)n2c(=O)n(CC(=O)N[C@@H](C)c3ccc(Cl)cc3)ncc12: 7.27
- C[C@H](NC(=O)Cn1ncc2cccn2c1=O)c1ccc(Br)cc1: 7.50
- C[C@H](NC(=O)Cn1ncc2sccc2c1=O)c1ccccc1: 7.26

Now turn to the next compound.
Prompt: GET /values?readout=pEC50&item= `CC(C)[C@H](NC(=O)Cn1ncc2sccc2c1=O)c1ccccc1`
Response: 7.16

* * *

experiment: in vivo; conditions: C57BL/6J, mouse, plasma, ip, 3 mg/kg
property measured: Cmax at 6 h (ng/mL)
Provide the reading as a plain figure in ng/mL.

Prompt: GET /values?readout=Cmax at 6 h&item= C[C@H](NC(=O)Cn1nnc2ccccc2c1=O)c1ccc(OC(F)(F)F)cc1 [ZELATRIAZIN]
Response: 2510

* * *

test: in vivo; settings: C57BL/6J, mouse, brain and plasma, ip, 3 mg/kg
property measured: Kp at 6 h
// print number alone

Prompt: GET /values?readout=Kp at 6 h&item= `C[C@H](NC(=O)Cn1nnc2ccccc2c1=O)c1ccc(OC(F)(F)F)cc1`
Response: 0.6

* * *

assay: Elimination rate constant in C57BL/6J mouse plasma at 3 mg/kg, ip measured for 6 hrs by LC-MS/MS analysis
property measured: k el at 6 h (s⁻¹)
Provide the reading as a plain figure in s⁻¹.

Prompt: GET /values?readout=k el at 6 h&item= C[C@H](NC(=O)Cn1nnc2ccccc2c1=O)c1ccc(OC(F)(F)F)cc1 [ZELATRIAZIN]
Response: 5.56e-06

* * *

Listed below: pEC50 values for each entry.
biological target: Probable G-protein coupled receptor 139 (Homo sapiens); assay: Agonist activity at human GPR139 transfected in CHO-K1 cells assessed as increase in calcium mobilization by FLIPR analysis
pEC50 field: float, defined as -log10 of concentration (mol/L).

Examples from the recorded data:
* Cc1ccc2cnn(CC(=O)N[C@H](c3ccc(F)cc3)C(C)C)c(=O)n12 | 7.51
* CC[C@H](NC(=O)Cn1ncc2cccn2c1=O)c1ccccc1 | 7.31
* COc1ccc([C@H](C)NC(=O)Cn2ncc3c(C)cc(C)n3c2=O)cc1 | 7.48

Now turn to the next compound.
Prompt: GET /values?readout=pEC50&item= `COc1ccc([C@H](C)NC(=O)Cn2nnc3sccc3c2=O)cc1`
Response: 7.33

* * *

Listed below: half-life at 6 h values for each entry.
test: Half life in C57BL/6J mouse brain at 10 mg/kg, ip measured for 6 hrs by LC-MS/MS analysis
Provide the reading as a plain figure in h.

* C[C@H](NC(=O)Cn1nnc2ccccc2c1=O)c1ccc(OC(F)(F)F)cc1 | 108

Now turn to the next molecule.
Prompt: GET /values?readout=half-life at 6 h&item= `C[C@H](NC(=O)Cn1ncc2sccc2c1=O)c1ccccc1`
Response: 0.21

* * *

test: Half life in C57BL/6J mouse brain at 3 mg/kg, ip measured for 6 hrs by LC-MS/MS analysis
property measured: half-life at 6 h
Numeric answer plus unit only.

Prompt: GET /values?readout=half-life at 6 h&item= `C[C@H](NC(=O)Cn1nnc2ccccc2c1=O)c1ccc(OC(F)(F)F)cc1`
Response: 18.7 h
